System: OVCAR-4
run-description: NCI tumour cell line growth inhibition, 48 h
Calls of active or inactive are those of the source. Cut-off read from the data, not from the text of the source: active = GI50 up to about 1.1 µM and inactive = higher.
Quick reference for GI50 among some compounds

# annotated cases, reported GI50 shown
compound	reported-measurement
Brc1ccc(CCNCCN2CCCCC2)cc1	19.3 µM (inactive)
COc1cccc(NC(=O)/C(Cc2nc3ccccc3nc2C)=N/NC(=O)C[n+]2ccccc2)c1	> 100 µM (inactive)
COc1ccc2nc(-c3ccccn3)cc(O)c2c1	72.3 µM (inactive)
N#C[BH2-][n+]1cn(C2CC(OP(=O)(O)OCC3OC(n4cnc5c(=O)[nH]c(N)nc54)CC3O)C(CO)O2)c2nc(N)[nH]c(=O)c21 (stereo not given)	> 100 µM (inactive)

// next item, GI50 requested
Query: Given the compound O=C(O)c1cc2ccccc2c(/N=N/c2c([N+](=O)[O-])cc([N+](=O)[O-])cc2S(=O)(=O)O)c1O , what is its reported GI50?
Result: > 100 µM (inactive)
